- Tested on: HT29 colon
- Test Protocol: NCI-60 one-dose screen, 48 h
- Stated Conditions: 10 µM unless noted
The panel holds about 83,000 compounds, 20% with a hit somewhere; the sample as a whole holds those more often. Active and inactive are the calls of the source. Rule for the calls: active = growth percent below 10; inactive = the rest.
// allowed return values: class 1 (active), class 0 (inactive)

### Prompt # lookup: test call for `C=C(C)[C@@H]1CC[C@]2(C)[C@H](CC=C3[C@@H]4CC(C)(C)CC[C@]4(C(=O)NCC#CCN4CCN(C)CC4)CC[C@]32C)[C@@]1(C)CCC#N`
### Response class 0

### Prompt Dear all, I need the recorded test outcome for `Cc1nn(-c2ccccc2)c2nc(CCl)[nH]c(=O)c12` , thank you.
### Response class 0

### Prompt Tell me the recorded outcome of this test for `CCC(=O)Nc1cc(Nc2cc(NC3CC3)n3ncc(C#N)c3n2)ccc1C` .
### Response class 0

### Prompt // param item: `C/C=C/[C@@H]1C=C[C@@H]2C[C@H](C)CC[C@H]2[C@]1(C)/C(O)=C1/C(=O)[C@H](CO)N(C)C1=O` ; yields the recorded call
### Response class 0

### Prompt What outcome does the record of this test show for `CSc1ccc(/C(=N/N=C(N)N)c2ccccc2)cc1` ?
### Response class 0

### Prompt Tell me the assay call for `Cc1cc(O)c(=O)cc2c1C[C@H]1CC(C)(C)/C=C/C[C@]3(C)Oc4cc(=O)c(O)cc(C)c4C[C@H]3C[C@H](O)[C@@]1(C)O2` please.
### Response class 1
